System: SW620E cells (etoposide-resistant)
Assay explanation: Neutral red uptake viability assay, SW620E
Assay type: cell-based, human
Condition details: Homo sapiens, substance alone (xlsx), read-out: SW620E IC50
pIC50: −log10 of the molar value.
Measured parameter: pIC50

compound="COc1cc([C@@H]2c3cc4c(cc3[C@@H](O[C@@H]3O[C@@H]5CO[C@@H](C)O[C@H]5[C@H](O)[C@H]3O)[C@H]3COC(=O)[C@H]23)OCO4)cc(OC)c1O [Etoposide, reference compound]" experimental_system="SW620E cells (etoposide-resistant)" measured_parameter=pIC50 recorded_result=4.80

* * *

Tested on: SW620M cells (methotrexate-resistant)
Assay explanation: Neutral red uptake viability assay, SW620M
Format: cell-based, human
Condition details: 72 h, n = 3, read-out: Cytotoxic activity IC50 (95% CI)
pIC50: −log10 of the molar value.
pIC50 for assorted molecules
Measured parameter: pIC50

molecule="O=C1N/C(=C\\c2ccccc2-[c-]2cccc2)C(=O)N2CCC[C@@H]12.[Fe+2].c1cc[cH-]c1 [(S,Z)-4b]" experimental_system="SW620M cells (methotrexate-resistant)" recorded_result=4.28
molecule="O=C1N/C(=C\\[c-]2cccc2)C(=O)N2CCC[C@@H]12.[Fe+2].c1cc[cH-]c1 [(S,Z)-4a]" experimental_system="SW620M cells (methotrexate-resistant)" recorded_result="< 4.00"
molecule="O=C1N/C(=C\\c2ccc(-[c-]3cccc3)cc2)C(=O)N2CCC[C@@H]12.[Fe+2].c1cc[cH-]c1 [(S,Z)-4d]" experimental_system="SW620M cells (methotrexate-resistant)" recorded_result="< 4.00"
molecule="O=C1N/C(=C/c2cccc(-[c-]3cccc3)c2)C(=O)N2CCC[C@@H]12.[Fe+2].c1cc[cH-]c1 [(S,E)-4c]" experimental_system="SW620M cells (methotrexate-resistant)" recorded_result="< 4.00"

* * *

System: SW620 cells
Assay explanation: MDR reversal assay (coadministration with anticancer drug), SW620
Format: cell-based, human
Condition details: SW620, drug alone, n = 3
pIC50: −log10 of the molar value.
Measured parameter: pIC50

compound="N.N.[Cl][Pt][Cl] [Cisplatin, reference compound]" recorded_result=5.36

* * *

Test system: SW620 cells
Assay explanation: Synergy determination (Bliss model, SynergyFinder), SW620;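 also: score below −10 means likely antagonism and −10 to 10 means additive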
Type: cell-based, human
Condition details: drug cisplatin + additive
Measured parameter: synergy score (in parentheses)

molecule="O=C1N/C(=C/c2ccccc2)C(=O)N2CCC[C@@H]12 [(S,E)-4e]" measured_parameter="synergy score (in parentheses)" recorded_result=−4.17
molecule="O=C1N/C(=C\\c2ccccc2)C(=O)N2CCC[C@@H]12 [(S,Z)-4e]" measured_parameter="synergy score (in parentheses)" recorded_result=−3.94
molecule="O=C1N/C(=C\\c2ccccc2-[c-]2cccc2)C(=O)N2CCC[C@@H]12.[Fe+2].c1cc[cH-]c1 [(S,Z)-4b]" measured_parameter="synergy score (in parentheses)" recorded_result=−5.00
molecule="O=C1N/C(=C\\c2ccc(-[c-]3cccc3)cc2)C(=O)N2CCC[C@@H]12.[Fe+2].c1cc[cH-]c1 [(S,Z)-4d]" measured_parameter="synergy score (in parentheses)" recorded_result=−2.46
molecule="O=C1N/C(=C/c2cccc(-[c-]3cccc3)c2)C(=O)N2CCC[C@@H]12.[Fe+2].c1cc[cH-]c1 [(S,E)-4c]" measured_parameter="synergy score (in parentheses)" recorded_result=−4.66
molecule="O=C1N/C(=C\\[c-]2cccc2)C(=O)N2CCC[C@@H]12.[Fe+2].c1cc[cH-]c1 [(S,Z)-4a]" measured_parameter="synergy score (in parentheses)" recorded_result=−4.74

Just for reference, paper PMC12257394 is where these values come from.
